System: HCT-116 colon
Test: NCI-60 one-dose screen, 48 h
Settings: 10 µM unless noted
The panel holds about 83,000 compounds, 20% with a hit somewhere; the sample as a whole holds those more often. Calls of active or inactive are those of the source. How the source made its calls: active means growth percent below 10; inactive means the rest.
// allowed return values: 1 = active, 0 = inactive

Check out these entries, answers already filled in.
| molecule | class-assignment |
| --- | --- |
| Nc1nnc(-c2cncc(Br)c2)c(-c2c[nH]c3ccc(Cl)cc23)n1 | 0 |
| FC(F)(F)c1cc2c(Cl)ncnc2n1CCC1CCOCC1 | 1 |
| O=C(Nc1ccc(F)cc1)Nc1nc2ccc([N+](=O)[O-])cc2s1 | 1 |
| FC(F)(F)CN1CCN(CCn2c(C(F)(F)F)cc3c(Cl)ncnc32)CC1 | 1 |
| COc1ccc2c(c1)C(Sc1ccc(Cl)cc1)c1c(nc(N)c(C#N)c1N)O2 (stereo not given) | 0 |
| CN(C)c1nc(NCCNS(=O)(=O)c2ccc(C(=O)/C=C/c3ccc(F)cc3)cc2)nc(N2CCOCC2)n1 | 1 |
| NS(=O)(=O)c1cccc(Nc2nc(SCC(=O)c3ccc(F)cc3)nc3ccccc23)c1 | 1 |
| COc1cccc(/C=C/c2nc3ccccc3c(=O)n2CC(=O)Nc2ccccc2)c1 | 0 |

Data request: Short answer needed: outcome of this test for `COc1ccccc1Nc1nnc(-c2c[nH]c3ccccc23)o1` ?
Data returned: 0

Data request: What call does the record list for `COc1cc2cc(C(=O)N3C[C@@H](CCl)c4c3cc(OC(=O)N(CCC(=O)N3CCN(C)CC3)C3CCCCC3)c3ccccc43)[nH]c2c(OC)c1OC` ?
Data returned: 1

Data request: Could you please tell me the result logged for `CN1CCc2c(sc3ncnc(N/N=C/c4cccc(Cl)c4Cl)c23)C1` in this assay?
Data returned: 1
